Tested on: Sheep choroid plexus (SCP) cells
Assay: Toxicity of compounds in control wells without virus, graded morphologically
Type: cell-based
Set-up: key: 0: no toxicity; 4: total cell lysates
Settings: 1.0 mM; 0 to 4 scale; Table 1
Kindly supply the reported Toxicity values for the records listed here.
Answers are plain numbers.

STRUCTURE_NOTATION | Toxicity
CCCCN1C[C@H](OC(=O)C(C)C)[C@@H](OC(=O)C(C)C)[C@H](OC(=O)C(C)C)[C@H]1COC(=O)C(C)C | 0
CCCCN1C[C@H](OC(=O)c2ccccc2)[C@@H](OC(=O)c2ccccc2)[C@H](OC(=O)c2ccccc2)[C@H]1COC(=O)c1ccccc1 | 0

We next turn to a different compound, shown below.
*Q* Identify Toxicity associated with the compound CC(=O)OC[C@@H]1[C@@H](OC(C)=O)[C@H](OC(C)=O)[C@@H](OC(C)=O)CN1C(=O)Cc1ccccc1
*A* 0
